Target: CPP32 (Homo sapiens, UniProt P42574)
Sequence (P42574 29-175 limits assumed, species assumed): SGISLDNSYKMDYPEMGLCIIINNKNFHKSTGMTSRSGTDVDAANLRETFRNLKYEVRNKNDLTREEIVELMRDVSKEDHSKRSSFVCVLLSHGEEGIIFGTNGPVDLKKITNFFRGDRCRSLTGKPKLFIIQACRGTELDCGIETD
Sequence (P42574 176-277 limits assumed, species assumed): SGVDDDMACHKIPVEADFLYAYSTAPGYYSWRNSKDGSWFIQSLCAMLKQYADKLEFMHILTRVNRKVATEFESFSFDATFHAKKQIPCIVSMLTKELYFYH
Experiment: Dissociation constant Ki and irreversible rate constant k3 for irreversible inhibitors, CPP32
Type: biochemical
Settings: continuous assay 60 min, reaction initiated by adding enzyme
Let's look at some compounds and their measured CPP32 k3/Ki.
ENDPOINT LABEL: CPP32 k3/Ki

[[record]]
compound = "CC(C)[C@H](NC(=O)COc1cccc2ccccc12)C(=O)NC(CC(=O)O)C(=O)CF (mixture of isomers)"
experimental_target = "CPP32 (Homo sapiens, UniProt P42574)"
measured = "207,000 M^−1s^−1"

[[record]]
compound = "CC(C)C[C@H](NC(=O)COc1ccccc1-c1ccccc1)C(=O)N[C@@H](CC(=O)O)C(=O)COP(=O)(c1ccccc1)c1ccccc1"
experimental_target = "CPP32 (Homo sapiens, UniProt P42574)"
measured = "319,000 M^−1s^−1"

[[record]]
compound = "O=C(O)CC(NC(=O)[C@@H]1Cc2ccccc2CN1C(=O)COc1cccc2ccccc12)C(=O)CF (mixture of isomers)"
experimental_target = "CPP32 (Homo sapiens, UniProt P42574)"
measured = "8,440 M^−1s^−1"

